Hello, the source for this data is the supplement of paper PMC10567573, in case you need it.

B1: MGC27345 (parent)
chain: KYMPHLCQDSSGEVSCQCQLHPPR

- Variants of: B1
- Measurement protocol: protein stability index of a GFP-peptide fusion (GPS, HEK-293T) (PSI 1-6); higher = more stable;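 further: lentivirally expressed fusions sorted by FACS into six bins by GFP to DsRed ratio, PSI derived from sequencing read proportions per bin multiplied by bin number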
- Condition description: c terminus: a fixed tail appended
Catalogue of variants with associated protein stability index

KYMPHLWQDSSGEVSCQCQLHPPR [C7W] :: 1.75

Next variant, please.
Fill in: protein stability index of KYMPHLCQDSSGEVSCQCQFHPPR [L20F] is ___
2.13
